experiment: Cytotoxicity against human SMMC7721 cells after 48 hrs; type: cell-based; settings: SMMC-7721, 48 h
endpoint_label: IC50

C=C1C(=O)O[C@H]2[C@H]1[C@@H](OC(=O)C(C)C)[C@H](O)[C@H](C)CCC(=O)[C@](C)(O)[C@@H]2OC(=O)C(C)C : 33.5 µg/mL

For CC[C@]1(O)C[C@H]2CN(CCc3c([nH]c4ccccc34)[C@@](C(=O)OC)(c3cc4c(cc3OC)N(C=O)[C@H]3[C@@](O)(C(=O)OC)[C@H](OC(C)=O)[C@]5(CC)C=CCN6CC[C@]43[C@@H]65)C2)C1.O=S(=O)(O)O [VINCRISTINE SULFATE] the compound record lists IC50 as 26.7 µg/mL

Entry under test: `CC(C)=CC[C@@H](O)[C@@H](C)CCC/C(C)=C/CC/C(C)=C/CO` . Its IC50 was > 100 µg/mL

Consider `CC(=O)OC/C(=C\CC/C(C)=C/CO)CCC[C@H](C)[C@H](O)CC=C(C)C` . Its measured IC50 is > 100 µg/mL

Entry `CC(=O)OC/C=C(\C)CC/C=C(/CCC[C@H](C)[C@H](O)CC=C(C)C)COC(C)=O` — recorded IC50 = 12.5 µg/mL

Item: C=C1C(=O)O[C@H]2[C@H]1[C@@H](O)[C@H](OC(=O)CC(C)C)[C@H](C)CCC(=O)[C@](C)(O)[C@@H]2OC(=O)C(C)CC (stereo partly specified) | IC50: 29.7 µg/mL

###

Measured IC50, listed per entry.
assay: Cytotoxicity against human SMMC7721 cells after 48 hrs; assay type: cell-based; details: SMMC-7721, 48 h
// return numeric value only (unit: µg/mL, not printed)

Here is how some compounds turned out for IC50.
C=C1C(=O)O[C@H]2[C@H]1[C@@H](OC(=O)/C(C)=C\C)C(=O)[C@H](C)CCC[C@](C)(O)[C@@H]2OC(=O)C(C)C : 46.3
C=C1C(=O)O[C@H]2[C@H]1[C@@H](O)[C@H](OC(=O)C(C)C)[C@H](C)CCC(=O)[C@](C)(O)[C@@H]2OC(=O)C(C)C [INCASPITOLIDE D] : 62.5
C=C1C(=O)O[C@H]2[C@H]1[C@@H](OC(=O)C(C)C)C(=O)[C@H](C)CCC[C@](C)(O)[C@@H]2OC(=O)C(C)C [INCASPITOLIDE A] : 97.1

Now turn to the next compound.
Entry `C=C1C(=O)O[C@H]2[C@H]1[C@@H](O)[C@H](OC(=O)CC(C)C)[C@H](C)CCC(=O)[C@](C)(O)[C@@H]2OC(=O)C(C)C` — recorded IC50 = 44.8
